Each recorded value in this set is attributed to paper PMC6720008.

Ends that are not written are not given here.
endpoint_label: half-life in plasma t1/2 (h)
One number for each entry, in h.

### Prompt Which half-life in plasma t1/2 is reported for this sequence? IGKEFKRIVQRIKDFLRNLVPRTERKDVY [LTP]
### Response 4
